Where do these numbers come from? They come from the supplement of paper PMC11417369.

The entries below are paired with their reported gcPBM binding intensity (ln).
# Test system: PF3D7_0420300 AP2 domain 1 (GST-tagged)
# Procedure details: gcPBM binding intensity (ln(normalized median fluorescence intensity)); higher = stronger DNA binding
The full ranking holds about 25,000 sequences; the median of “ln(normalized median fluorescence intensity)” is about 9.3, and the highest 2% start at about 10. The sample as a whole holds a higher share of the highest values than the screen did.
Answer using only a numeral; do not append any unit.

Guide cases for gcPBM binding intensity (ln), answers given:
- Sequence entry: "AAAAAAAAAAAAAAAAAAAAAAATATATATATATAT [XGTACX_negctrl_site33]"
  gcPBM binding intensity (ln): 9.26
- Sequence entry: "CGCTTTATTTATATATGTACATATATATATATATAC [XGTACX_site5012]"
  gcPBM binding intensity (ln): 9.33
- Sequence entry: "TATAGTTCTTCTATTTGTACATATATTATTATTTAA [XGTACX_site895]"
  gcPBM binding intensity (ln): 9.26

gcPBM binding intensity (ln) for TTTTTCTGTTCTTTTTGTACTTAAATATATTTATTT [XGTACX_site5658] is 9.57

gcPBM binding intensity (ln) for TATATTATTTATTAGACACACATTATTAAAATATTT [CACACA_site4737] is 9.19

* * *

The entries below are paired with their reported gcPBM binding intensity (ln).
# System: PF3D7_0420300 AP2 domain 1 (GST-tagged)
# Procedure details: gcPBM binding intensity (ln(normalized median fluorescence intensity)); higher = stronger DNA binding
In all, about 25,000 sequences were measured (“ln(normalized median fluorescence intensity)”: median about 9.3, highest 2% from about 10 on). The list comes from a sample in which the highest values are over-represented; it also holds close analogues and randomly drawn sequences.
Answer using only a numeral; do not append any unit.

- Sequence entry: "ATTTATACATATAAACGTACATACATATATAATATT [XGTACX_site2969]"
  Subject of test: "PF3D7_0420300 AP2 domain 1 (GST-tagged)"
  Numeric value: 9.3
- Sequence entry: "CACATATAAATATTAACACACATAATGAGTTATATA [CACACA_site7316]"
  Subject of test: "PF3D7_0420300 AP2 domain 1 (GST-tagged)"
  Numeric value: 9.33
- Sequence entry: "AAAAAAAAAAAACACACACACACACCCATACATACA [CACACA_site707]"
  Subject of test: "PF3D7_0420300 AP2 domain 1 (GST-tagged)"
  Numeric value: 10.2
- Sequence entry: "TATATACAAAAAATATGTACATATATATATATATAT [XGTACX_site3497]"
  Subject of test: "PF3D7_0420300 AP2 domain 1 (GST-tagged)"
  Numeric value: 9.21
- Sequence entry: "AAAAAAAAAAAAAAAACACACATACACCCAGACACA [CACACA_site5807]"
  Subject of test: "PF3D7_0420300 AP2 domain 1 (GST-tagged)"
  Numeric value: 9.6

Proceed to the following item.
gcPBM binding intensity (ln) for ATATCATTTTCCTGCACACATAAATTTATATAATAT [CACACA_site1048] is 9.76

* * *

The entries below are paired with their reported gcPBM binding intensity (ln).
# Tested on: PF3D7_0420300 AP2 domain 1 (GST-tagged)
# Procedure details: gcPBM binding intensity (ln(normalized median fluorescence intensity)); higher = stronger DNA binding
Over roughly 25,000 sequences, “ln(normalized median fluorescence intensity)” has its median near 9.3; the highest 2% begin near 10. Shown is part of a subset that was picked to be rich in the highest values.
Answer using only a numeral; do not append any unit.

Guide cases for gcPBM binding intensity (ln), answers given:
- Sequence entry: "TACATACAGAAACACACACACACATATATATATATA [CACACA_site2919]"
  Measured quantity: "gcPBM binding intensity (ln)"
  Numeric value: 10
- Sequence entry: "ATATTATTATTAGTTTCACACATTTAATGAAACTAA [CACACA_site5677]"
  Measured quantity: "gcPBM binding intensity (ln)"
  Numeric value: 9.03
- Sequence entry: "AACATATAAAAATGTGCACACACACCCATATATATA [CACACA_site1525]"
  Measured quantity: "gcPBM binding intensity (ln)"
  Numeric value: 9.97
- Sequence entry: "TATTAAACGAAACACACACACACACCCATATATAAA [CACACA_site759]"
  Measured quantity: "gcPBM binding intensity (ln)"
  Numeric value: 10.2

gcPBM binding intensity (ln) for AACAATATATTGAATAGTACATATATATAAACATAT [XGTACX_site2811] is 9.46
